Biological target: Serine/threonine-protein kinase mTOR (Homo sapiens, UniProt P42345)
Experiment: Inhibition of human TOR in HEK293 cells by DELFIA
We begin with a simple list: items and their reported pIC50.
The meaning of pIC50 here: minus log10 of the concentration in molar units.

These solved cases illustrate the format of a correct answer.
Enquiry: Provide value of pIC50 for this record tested with Serine/threonine-protein kinase mTOR (Homo sapiens, UniProt P42345): Oc1cccc(-c2nc(N3CCOCC3)c3cnn(C4CCN(Cc5ccccc5)CC4)c3n2)c1
Return: 7.08

Enquiry: Next molecule: OCc1cccc(-c2nc(N3CCOCC3)c3ncn(C4CCN(Cc5ccccc5)CC4)c3n2)c1
Return: 6.16

Enquiry: Next molecule: OCc1cccc(-c2nc(N3CCOCC3)c3cnn(C4CCN(Cc5ccccc5)CC4)c3n2)c1
Return: 7.05

Enquiry: Next molecule: Oc1cccc(-c2nc(N3CCOCC3)c3nc[nH]c3n2)c1
Return: 5.62

Enquiry: Next molecule: c1cc2ccc(-c3nc(N4CCOCC4)c4nc[nH]c4n3)cc2[nH]1
Return: 6.82

Next:
Enquiry: Provide value of pIC50 for this record tested with Serine/threonine-protein kinase mTOR (Homo sapiens, UniProt P42345): Oc1cccc(-c2nc(N3CCOCC3)c3ncn(C4CCNCC4)c3n2)c1
Return: 6.06

* * *

We begin with a simple list: items and their reported pIC50.
Tested on: LoVo
Assay: Antiproliferative activity against human LoVo cells
Type: functional, cell-based
The meaning of pIC50 here: minus log10 of the concentration in molar units.

Enquiry: Which pIC50 reading was recorded for the compound OCc1cccc(-c2nc(N3CCOCC3)c3ncn(C4CCNCC4)c3n2)c1 ?
Return: 5.73

Enquiry: Next compound: Oc1cccc(-c2nc(N3CCOCC3)c3cnn(C4CCN(Cc5ccccc5)CC4)c3n2)c1
Return: 5.79

Enquiry: Next compound: Oc1ccccc1-c1nc(N2CCOCC2)c2nc[nH]c2n1
Return: 5.14

Enquiry: Next compound: Oc1cccc(-c2nc(N3CCOCC3)c3ncn(C4CCN(Cc5ccccc5)CC4)c3n2)c1
Return: 5.71

Enquiry: Next compound: Oc1cccc(-c2nc(N3CCOCC3)c3ncn(C4CCNCC4)c3n2)c1
Return: 5.69

Next:
Enquiry: Which pIC50 reading was recorded for the compound Oc1cccc(-c2nc(N3CCOCC3)c3ncn(CC4CCN(Cc5ccccc5)CC4)c3n2)c1 ?
Return: 5.45

Enquiry: Next compound: OCc1cccc(-c2nc(N3CCOCC3)c3cnn(C4CCN(Cc5ccccc5)CC4)c3n2)c1
Return: 6.29

Enquiry: Next compound: OCc1cccc(-c2nc(N3CCOCC3)c3ncn(CC4CCN(Cc5ccccc5)CC4)c3n2)c1
Return: 5.51

Enquiry: Next compound: Oc1cccc(-c2nc(N3CCOCC3)c3cnn(C4CCNCC4)c3n2)c1
Return: 5.80

Enquiry: Next compound: OCc1cccc(-c2nc(N3CCOCC3)c3ncn(C4CCN(Cc5ccccc5)CC4)c3n2)c1
Return: 5.98

* * *

We begin with a simple list: items and their reported pIC50.
Target: Phosphatidylinositol 4,5-bisphosphate 3-kinase catalytic subunit gamma isoform (Homo sapiens)
Assay: Inhibition of GST-GRP1-fused PI3Kgamma by microtiter plate based fluorescence polarization assay
The meaning of pIC50 here: minus log10 of the concentration in molar units.

These solved cases illustrate the format of a correct answer.
Enquiry: Which pIC50 reading was recorded for the molecule Oc1ccccc1-c1nc(N2CCOCC2)c2nc[nH]c2n1 ?
Return: 5.29

Enquiry: Next molecule: Oc1cccc(-c2nc(N3CCOCC3)c3ncn(C4CCNCC4)c3n2)c1
Return: 6.88

Enquiry: Next molecule: Oc1cccc(-c2nc(N3CCOCC3)c3ncn(CC4CCN(Cc5ccccc5)CC4)c3n2)c1
Return: 5.62

Enquiry: Next molecule: CS(=O)(=O)c1cccc(-c2nc(N3CCOCC3)c3nc[nH]c3n2)c1
Return: 5.10

Enquiry: Next molecule: c1nc2c(N3CCOCC3)nc(-c3ccc4c(c3)OCCO4)nc2[nH]1
Return: 5.12

Next:
Enquiry: Which pIC50 reading was recorded for the molecule c1nc2c(N3CCOCC3)nc(-c3ccoc3)nc2[nH]1 ?
Return: 4.96

* * *

We begin with a simple list: items and their reported log10 of IC50.
Target: Phosphatidylinositol 4,5-bisphosphate 3-kinase catalytic subunit alpha isoform (Homo sapiens)
Sequence (P42336 whole entry, the tested form may be a part, canonical isoform): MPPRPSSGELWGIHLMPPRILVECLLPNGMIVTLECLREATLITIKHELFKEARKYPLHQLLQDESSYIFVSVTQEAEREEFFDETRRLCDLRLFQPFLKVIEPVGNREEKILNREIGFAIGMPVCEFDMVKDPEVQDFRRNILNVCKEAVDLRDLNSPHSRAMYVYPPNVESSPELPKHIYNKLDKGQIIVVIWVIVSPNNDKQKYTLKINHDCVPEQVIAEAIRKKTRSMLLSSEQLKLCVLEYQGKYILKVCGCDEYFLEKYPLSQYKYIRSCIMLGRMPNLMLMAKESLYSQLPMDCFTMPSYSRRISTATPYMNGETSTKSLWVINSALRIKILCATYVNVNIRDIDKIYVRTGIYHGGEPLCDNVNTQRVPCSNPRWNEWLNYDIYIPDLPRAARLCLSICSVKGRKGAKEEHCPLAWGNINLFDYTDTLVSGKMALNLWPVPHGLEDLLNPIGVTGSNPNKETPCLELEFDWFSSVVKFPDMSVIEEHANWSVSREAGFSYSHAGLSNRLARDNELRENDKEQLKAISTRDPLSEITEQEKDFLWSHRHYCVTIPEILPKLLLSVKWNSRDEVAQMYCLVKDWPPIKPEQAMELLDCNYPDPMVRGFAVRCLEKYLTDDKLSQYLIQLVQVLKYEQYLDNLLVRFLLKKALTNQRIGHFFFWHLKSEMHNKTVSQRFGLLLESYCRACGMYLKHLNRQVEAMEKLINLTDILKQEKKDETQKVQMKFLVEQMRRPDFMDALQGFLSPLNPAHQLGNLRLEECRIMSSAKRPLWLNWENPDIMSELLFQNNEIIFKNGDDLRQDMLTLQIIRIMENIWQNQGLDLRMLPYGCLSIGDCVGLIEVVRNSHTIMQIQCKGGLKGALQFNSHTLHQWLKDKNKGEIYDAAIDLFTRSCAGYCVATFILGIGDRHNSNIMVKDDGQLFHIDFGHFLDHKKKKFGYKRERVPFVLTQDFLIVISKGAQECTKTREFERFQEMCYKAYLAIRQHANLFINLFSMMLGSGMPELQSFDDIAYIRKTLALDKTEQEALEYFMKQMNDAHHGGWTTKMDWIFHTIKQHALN
Test: Inhibition of GST-GRP1-fused PI3Kalpha by microtiter plate based fluorescence polarization assay
Lab note - IC50 converted to log10 from values in nM.

These solved cases illustrate the format of a correct answer.
Enquiry: Which log10 of IC50 reading was recorded for the compound c1nc2c(N3CCOCC3)nc(-c3ccc4c(c3)OCCO4)nc2[nH]1 ?
Return: 3.54

Enquiry: Next compound: c1nc2c(N3CCOCC3)nc(-c3ccoc3)nc2[nH]1
Return: 3.58

Enquiry: Next compound: OCc1cccc(-c2nc(N3CCOCC3)c3ncn(C4CCNCC4)c3n2)c1
Return: 1.76

Enquiry: Next compound: Oc1ccccc1-c1nc(N2CCOCC2)c2nc[nH]c2n1
Return: 2.82

Enquiry: Next compound: c1csc(-c2nc(N3CCOCC3)c3nc[nH]c3n2)c1
Return: 2.81

Next:
Enquiry: Which log10 of IC50 reading was recorded for the compound OCc1cccc(-c2nc(N3CCOCC3)c3ncn(CC4CCN(Cc5ccccc5)CC4)c3n2)c1 ?
Return: 2.39

Enquiry: Next compound: CS(=O)(=O)c1cccc(-c2nc(N3CCOCC3)c3nc[nH]c3n2)c1
Return: 3.59

Enquiry: Next compound: Oc1cccc(-c2nc(N3CCCCC3)c3nc[nH]c3n2)c1
Return: 3.58

Enquiry: Next compound: OCc1ccc(-c2nc(N3CCOCC3)c3nc[nH]c3n2)cc1
Return: 3.46

Enquiry: Next compound: c1nc2c(N3CCOCC3)nc(-c3ccc4c(c3)OCO4)nc2[nH]1
Return: 3.08

Enquiry: Next compound: CS(=O)(=O)c1ccc(-c2nc(N3CCOCC3)c3nc[nH]c3n2)cc1
Return: 3.25

Enquiry: Next compound: Oc1cccc(-c2nc(N3CCOCC3)c3ncn(C4CCNCC4)c3n2)c1
Return: 1.81

Enquiry: Next compound: c1cc2ccc(-c3nc(N4CCOCC4)c4nc[nH]c4n3)cc2[nH]1
Return: 3.37

Enquiry: Next compound: N#Cc1cccc(-c2nc(N3CCOCC3)c3nc[nH]c3n2)c1
Return: 3.46

Enquiry: Next compound: CS(=O)(=O)Nc1cccc(-c2nc(N3CCOCC3)c3nc[nH]c3n2)c1
Return: 3.64

* * *

We begin with a simple list: items and their reported pIC50.
Biological target: Phosphatidylinositol 4,5-bisphosphate 3-kinase catalytic subunit gamma isoform (Homo sapiens, UniProt P48736)
Sequence (P48736 whole entry, the tested form may be a part, canonical isoform): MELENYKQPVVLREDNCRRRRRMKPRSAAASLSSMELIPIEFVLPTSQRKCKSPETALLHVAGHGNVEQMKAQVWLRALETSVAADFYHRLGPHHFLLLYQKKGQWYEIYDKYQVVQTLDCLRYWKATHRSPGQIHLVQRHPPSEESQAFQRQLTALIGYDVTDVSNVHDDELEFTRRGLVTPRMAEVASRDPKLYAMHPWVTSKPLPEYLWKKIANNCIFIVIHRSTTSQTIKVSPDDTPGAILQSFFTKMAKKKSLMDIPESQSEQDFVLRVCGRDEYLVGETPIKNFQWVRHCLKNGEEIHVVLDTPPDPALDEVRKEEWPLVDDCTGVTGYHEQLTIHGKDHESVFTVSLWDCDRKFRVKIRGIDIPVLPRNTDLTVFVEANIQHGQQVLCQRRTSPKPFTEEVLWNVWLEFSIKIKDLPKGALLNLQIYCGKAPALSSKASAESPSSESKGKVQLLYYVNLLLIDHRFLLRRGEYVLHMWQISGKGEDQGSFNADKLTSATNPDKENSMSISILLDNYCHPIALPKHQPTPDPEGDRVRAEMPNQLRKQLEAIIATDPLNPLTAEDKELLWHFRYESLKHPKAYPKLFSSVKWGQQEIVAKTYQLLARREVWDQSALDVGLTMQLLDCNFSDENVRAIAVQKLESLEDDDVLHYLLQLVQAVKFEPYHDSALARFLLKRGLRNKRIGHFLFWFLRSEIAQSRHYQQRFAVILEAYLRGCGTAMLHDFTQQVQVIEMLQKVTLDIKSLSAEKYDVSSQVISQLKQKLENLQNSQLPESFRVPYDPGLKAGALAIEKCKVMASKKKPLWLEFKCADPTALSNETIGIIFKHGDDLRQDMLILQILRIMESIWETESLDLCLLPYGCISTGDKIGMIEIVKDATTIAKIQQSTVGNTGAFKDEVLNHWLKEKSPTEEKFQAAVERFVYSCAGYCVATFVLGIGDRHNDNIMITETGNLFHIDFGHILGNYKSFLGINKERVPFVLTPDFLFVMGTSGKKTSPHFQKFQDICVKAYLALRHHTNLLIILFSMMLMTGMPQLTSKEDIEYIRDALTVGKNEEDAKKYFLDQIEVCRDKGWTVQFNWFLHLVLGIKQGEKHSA
Assay: Inhibition of GST-GRP1-fused PI3Kgamma by microtiter plate based fluorescence polarization assay
The meaning of pIC50 here: minus log10 of the concentration in molar units.

These solved cases illustrate the format of a correct answer.
Enquiry: Which pIC50 reading was recorded for the molecule CS(=O)(=O)c1ccc(-c2nc(N3CCOCC3)c3nc[nH]c3n2)cc1 ?
Return: 5.23

Enquiry: Next molecule: Oc1cccc(-c2nc(N3CCOCC3)c3cnn(C4CCNCC4)c3n2)c1
Return: 6.00

Enquiry: Next molecule: CS(=O)(=O)Nc1cccc(-c2nc(N3CCOCC3)c3nc[nH]c3n2)c1
Return: 5.10

Enquiry: Next molecule: Oc1ccc(-c2nc(N3CCOCC3)c3nc[nH]c3n2)cc1
Return: 5.07

Enquiry: Next molecule: c1csc(-c2nc(N3CCOCC3)c3nc[nH]c3n2)c1
Return: 5.17

Enquiry: Next molecule: Oc1cccc(-c2nc(N3CCOCC3)c3cnn(C4CCN(Cc5ccccc5)CC4)c3n2)c1
Return: 5.63

Enquiry: Next molecule: Oc1cccc(-c2nc(N3CCCCC3)c3nc[nH]c3n2)c1
Return: 4.99

Enquiry: Next molecule: OCc1cccc(-c2nc(N3CCOCC3)c3ncn(CC4CCN(Cc5ccccc5)CC4)c3n2)c1
Return: 5.78

Next:
Enquiry: Which pIC50 reading was recorded for the molecule c1nc2c(N3CCOCC3)nc(-c3ccsc3)nc2[nH]1 ?
Return: 5.10

Enquiry: Next molecule: OCc1ccc(-c2nc(N3CCOCC3)c3nc[nH]c3n2)cc1
Return: 5.10

Enquiry: Next molecule: N#Cc1cccc(-c2nc(N3CCOCC3)c3nc[nH]c3n2)c1
Return: 5.08

Enquiry: Next molecule: c1nc2c(N3CCOCC3)nc(-c3ccc4c(c3)OCO4)nc2[nH]1
Return: 5.16

Enquiry: Next molecule: OCc1cccc(-c2nc(N3CCOCC3)c3cnn(C4CCN(Cc5ccccc5)CC4)c3n2)c1
Return: 6.01

Enquiry: Next molecule: Oc1cccc(-c2nc(N3CCOCC3)c3ncn(C4CCN(Cc5ccccc5)CC4)c3n2)c1
Return: 4.97

Enquiry: Next molecule: NC(=O)c1ccc(-c2nc(N3CCOCC3)c3nc[nH]c3n2)cc1
Return: 5.00

Enquiry: Next molecule: c1cc2ccc(-c3nc(N4CCOCC4)c4nc[nH]c4n3)cc2[nH]1
Return: 5.13
